These data points were gathered from paper PMC5540273.

# System: DMPK2;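 further: KINOMEscan kinase panel screen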
# Construct: gene CDC42BPG
# CONDITIONS USED: concentration: 1 μM, replicates: in singlicate; n = 1
Think of 3% as a floor: if %Inh stands on it or above, it is T; beneath it, F.

// query Does the compound Cc1c(Cn2c3ccccc3n3c(=O)cc(N4CCOCC4)nc23)cccc1C(F)(F)F have recorded %Inh that is 3% or more?
// result F

// query Does the compound COc1ccc(Nc2nccc(N3CCC(NC(=O)C(C)c4ccc(Cl)cc4)C3)n2)cc1 (centres unmarked) have recorded %Inh that is 3% or more?
// result F

// query Does the compound Cc1ccccc1Cn1ccn2c(=O)cc(N3CCOCC3)nc12 have recorded %Inh that is 3% or more?
// result F

// query Does the compound CC(=O)c1cccc(NC(=O)NC2CCN(c3ccnc(Nc4ccc(F)cc4)n3)C2)c1 (centres unmarked) have recorded %Inh that is 3% or more?
// result T

// query Does the compound Fc1ccc(-c2nc3n(c2-c2ccncc2)CCS3)cc1 have recorded %Inh that is 3% or more?
// result T

// query Does the compound O=C(Nc1n[nH]c2nc(-c3ccco3)c(Br)cc12)C1CCN(Cc2ccccc2)C1.O=C(O)[C@H](O)[C@@H](O)C(=O)O (centres unmarked) have recorded %Inh that is 3% or more?
// result F

// query Does the compound Cc1ccc(NC(=O)Nc2ccccc2)cc1-c1ccc(C(=O)Nc2ccncc2)cc1 have recorded %Inh that is 3% or more?
// result T

// query Does the compound COc1cccc(C2=C(Nc3cc(Cl)c(O)c(Cl)c3)C(=O)NC2=O)c1 have recorded %Inh that is 3% or more?
// result F

// query Does the compound COc1ccc(CSc2nnc(-c3ccc4nccn4c3)o2)cc1C(F)(F)F have recorded %Inh that is 3% or more?
// result F

// query Does the compound COc1ccc(Nc2nccc(N3CCC(NC(=O)c4cc5ccccc5s4)C3)n2)cc1 (centres unmarked) have recorded %Inh that is 3% or more?
// result T

// query Does the compound CS(=O)(=O)CCNCc1nc(-c2ccc3ncnc(Nc4ccc(OCc5ccccc5)c(Cl)c4)c3c2)cs1.Cl have recorded %Inh that is 3% or more?
// result F

// query Does the compound Nc1nccc(-c2c(-c3ccc(F)cc3)ncn2C2CCN(Cc3ccccc3)CC2)n1 have recorded %Inh that is 3% or more?
// result T

// query Does the compound CC(=O)c1c(C)c2cnc(Nc3ccc(N4CCNCC4)cn3)nc2n(C2CCCC2)c1=O have recorded %Inh that is 3% or more?
// result T

// query Does the compound COc1ccc(Nc2nccc(N3CCC(NC(=O)C(C)c4ccc(Cl)cc4)CC3)n2)cc1 (centres unmarked) have recorded %Inh that is 3% or more?
// result T

// query Does the compound O=C(Nc1n[nH]c2nc(-c3cccs3)c(Br)cc12)C1CCCC1 have recorded %Inh that is 3% or more?
// result T

// query Does the compound COC(=O)c1cccc(NC(=O)NC2CCN(c3ccnc(Nc4ccc(F)cc4)n3)C2)c1 (centres unmarked) have recorded %Inh that is 3% or more?
// result F

// query Does the compound c1ccc(-c2ccnc3[nH]ccc23)cc1 have recorded %Inh that is 3% or more?
// result F

// query Does the compound CNC(=O)c1ccc(C)c(-n2c(C)cc(OCc3ccc(F)cc3F)c(Br)c2=O)c1 have recorded %Inh that is 3% or more?
// result F

// query Does the compound Cc1ccc(NC(=O)Nc2ccccc2F)cc1-c1ccc(C(=O)Nc2ccncc2)cc1 have recorded %Inh that is 3% or more?
// result T

// query Does the compound O=c1cc(N2CCOCC2)nc2n(Cc3ccccc3F)ccn12 have recorded %Inh that is 3% or more?
// result F

// query Does the compound NS(=O)(=O)c1cccc(N/C=C2\C(=O)Nc3ccc(S(=O)(=O)Cc4c(Cl)cccc4Cl)cc32)c1 have recorded %Inh that is 3% or more?
// result T

// query Does the compound FC(F)(F)c1ccccc1-c1cc(-c2c[nH]nc2-c2ccccn2)ccn1 have recorded %Inh that is 3% or more?
// result T

// query Does the compound Cc1ccc(NC(=O)Nc2ccc(Cl)cc2)cc1-c1ccc(C(=O)Nc2ccncc2)cc1 have recorded %Inh that is 3% or more?
// result T

// query Does the compound Cc1ccc(NC(=O)c2ccc(Cl)cc2)cc1-c1ccc(C(=O)Nc2ccncc2)cc1 have recorded %Inh that is 3% or more?
// result F

// query Does the compound CC(=O)c1c(C)c2cnc(Nc3ccn(C)n3)nc2n(C2CCCC2)c1=O have recorded %Inh that is 3% or more?
// result F

// query Does the compound Cl.Cl.Cl.N#Cc1ccc(CCNc2nccc(-c3cccc(CN4CCNCC4)c3)n2)cc1 have recorded %Inh that is 3% or more?
// result T

// query Does the compound Nc1cccc(-c2ccc3c(N)n[nH]c3c2)n1 have recorded %Inh that is 3% or more?
// result F

// query Does the compound CC(C)c1cc(-c2ccc3c(N)n[nH]c3c2)nc(N)n1 have recorded %Inh that is 3% or more?
// result F

// query Does the compound COc1ccc(CSc2nnc(-c3ccc4ncsc4c3)o2)cc1C(F)(F)F have recorded %Inh that is 3% or more?
// result F

// query Does the compound Fc1ccc(-c2nn3cccc(F)c3c2-c2ccncc2)cc1 have recorded %Inh that is 3% or more?
// result T

// query Does the compound Cc1cccc2c(-c3ccncn3)c(-c3ccc(F)cc3)nn12 have recorded %Inh that is 3% or more?
// result T

// query Does the compound Cn1cncc1C(=O)NC1CCN(c2ccnc(Nc3ccc(F)cc3)n2)C1 (centres unmarked) have recorded %Inh that is 3% or more?
// result F

// query Does the compound Cn1cncc1-c1cc2c(Nc3ccc(OCc4ccccc4)cc3)ncnc2cn1 have recorded %Inh that is 3% or more?
// result F

// query Does the compound COC(=O)c1cccc(NC(=O)NC2CCN(c3ccnc(Nc4ccc(OC)cc4)n3)C2)c1 (centres unmarked) have recorded %Inh that is 3% or more?
// result F
